Reference source for all entries: ChEMBL document CHEMBL4219142

target: Histone-lysine N-methyltransferase, H3 lysine-79 specific (Homo sapiens); assay: Inhibition of recombinant human His6-SUMO tagged DOT1L (1 to 416 residues) expressed in Escherichia coli BL21(DE3) using oligonucleosome as substrate pretreated for 15 mins followed by substrate addition measured after 60 mins in presence of [3H]SAM by liquid scintillation counting method
Sequence (Q8TEK3 whole entry, the tested form may be a part): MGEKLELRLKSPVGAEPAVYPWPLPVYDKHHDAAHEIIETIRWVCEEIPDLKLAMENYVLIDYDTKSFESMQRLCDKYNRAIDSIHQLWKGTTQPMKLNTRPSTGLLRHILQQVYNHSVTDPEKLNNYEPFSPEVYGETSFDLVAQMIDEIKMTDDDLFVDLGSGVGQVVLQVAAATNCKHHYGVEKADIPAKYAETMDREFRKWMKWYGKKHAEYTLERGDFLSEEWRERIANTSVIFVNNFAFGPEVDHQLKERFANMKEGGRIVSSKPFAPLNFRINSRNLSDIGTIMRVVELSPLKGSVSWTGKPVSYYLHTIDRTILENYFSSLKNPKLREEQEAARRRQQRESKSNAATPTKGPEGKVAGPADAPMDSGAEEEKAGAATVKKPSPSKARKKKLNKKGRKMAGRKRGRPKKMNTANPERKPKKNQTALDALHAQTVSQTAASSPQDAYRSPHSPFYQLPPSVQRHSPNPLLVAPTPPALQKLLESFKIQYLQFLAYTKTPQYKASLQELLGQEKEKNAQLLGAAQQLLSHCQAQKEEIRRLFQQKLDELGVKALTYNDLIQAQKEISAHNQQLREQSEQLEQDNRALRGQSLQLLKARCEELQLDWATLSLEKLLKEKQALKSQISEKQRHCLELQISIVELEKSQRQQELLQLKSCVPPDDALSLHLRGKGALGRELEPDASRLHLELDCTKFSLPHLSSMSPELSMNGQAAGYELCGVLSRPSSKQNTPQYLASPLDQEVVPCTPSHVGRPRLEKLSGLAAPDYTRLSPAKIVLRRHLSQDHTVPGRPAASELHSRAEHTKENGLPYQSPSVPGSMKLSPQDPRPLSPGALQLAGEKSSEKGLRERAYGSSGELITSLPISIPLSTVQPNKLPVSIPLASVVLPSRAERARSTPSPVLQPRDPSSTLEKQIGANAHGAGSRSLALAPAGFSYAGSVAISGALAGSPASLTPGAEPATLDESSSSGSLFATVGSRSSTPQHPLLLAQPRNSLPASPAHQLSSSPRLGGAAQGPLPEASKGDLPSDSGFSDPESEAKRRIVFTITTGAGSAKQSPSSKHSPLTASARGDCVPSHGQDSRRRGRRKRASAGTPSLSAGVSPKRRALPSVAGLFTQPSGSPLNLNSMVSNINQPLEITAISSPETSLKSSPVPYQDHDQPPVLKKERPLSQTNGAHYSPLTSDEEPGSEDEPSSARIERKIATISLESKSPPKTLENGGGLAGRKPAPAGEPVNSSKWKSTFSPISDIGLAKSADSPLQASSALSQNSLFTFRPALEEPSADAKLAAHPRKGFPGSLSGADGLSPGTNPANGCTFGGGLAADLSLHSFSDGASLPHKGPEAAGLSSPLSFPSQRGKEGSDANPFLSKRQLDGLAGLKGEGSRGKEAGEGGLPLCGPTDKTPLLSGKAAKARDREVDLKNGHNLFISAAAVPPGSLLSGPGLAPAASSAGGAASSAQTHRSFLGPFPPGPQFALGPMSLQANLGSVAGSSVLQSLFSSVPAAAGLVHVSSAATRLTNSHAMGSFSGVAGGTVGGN
pIC50: −log10 of the molar value.
readout-type: pIC50

- item-smiles: "C(=C\\c1nn2c(-c3ccccc3)nnc2s1)/c1ccco1"
  target-or-system: "Histone-lysine N-methyltransferase, H3 lysine-79 specific (Homo sapiens)"
  readout-type: "pIC50"
  result-value: 5.15
- item-smiles: "C(=C\\c1nn2c(-c3ccncc3)nnc2s1)/c1ccco1"
  target-or-system: "Histone-lysine N-methyltransferase, H3 lysine-79 specific (Homo sapiens)"
  readout-type: "pIC50"
  result-value: 4.86
- item-smiles: "CN(C)c1ccc(-c2nnc3sc(/C=C/c4ccco4)nn23)cc1"
  target-or-system: "Histone-lysine N-methyltransferase, H3 lysine-79 specific (Homo sapiens)"
  readout-type: "pIC50"
  result-value: 4.68
- item-smiles: "Cc1cccc(-c2nnc3sc(/C=C/c4ccco4)nn23)c1"
  target-or-system: "Histone-lysine N-methyltransferase, H3 lysine-79 specific (Homo sapiens)"
  readout-type: "pIC50"
  result-value: 5.03
- item-smiles: "COc1ccccc1-c1nnc2sc(/C=C/c3ccco3)nn12"
  target-or-system: "Histone-lysine N-methyltransferase, H3 lysine-79 specific (Homo sapiens)"
  readout-type: "pIC50"
  result-value: 5.01

----------
target: Histone-lysine N-methyltransferase, H3 lysine-79 specific (Homo sapiens, UniProt Q8TEK3); assay: Inhibition of recombinant human His6-SUMO tagged DOT1L (1 to 416 residues) expressed in Escherichia coli BL21(DE3) at 50 uM using oligonucleosome as substrate pretreated for 15 mins followed by substrate addition measured after 60 mins in presence of [3H]SAM by liquid scintillation counting method relative to control
Sequence (Q8TEK3 whole entry, looked up, the tested form may be a part): as the sequence (Q8TEK3 whole entry, the tested form may be a part) above
readout-type: inhibition (%)

- item-smiles: "COc1cc(-c2nnc3sc(/C=C/c4ccco4)nn23)cc(OC)c1OC"
  target-or-system: "Histone-lysine N-methyltransferase, H3 lysine-79 specific (Homo sapiens, UniProt Q8TEK3)"
  unit-text: "%"
  inhibition: 53
- item-smiles: "Cc1occc1-c1nnc2sc(CCCc3ccccc3)nn12"
  target-or-system: "Histone-lysine N-methyltransferase, H3 lysine-79 specific (Homo sapiens, UniProt Q8TEK3)"
  unit-text: "%"
  inhibition: 17
- item-smiles: "C(=C\\c1nn2c(-c3ccncc3)nnc2s1)/c1ccco1"
  target-or-system: "Histone-lysine N-methyltransferase, H3 lysine-79 specific (Homo sapiens, UniProt Q8TEK3)"
  unit-text: "%"
  inhibition: 67
- item-smiles: "Cc1occc1-c1nnc2sc(CCc3ccccc3)nn12"
  target-or-system: "Histone-lysine N-methyltransferase, H3 lysine-79 specific (Homo sapiens, UniProt Q8TEK3)"
  unit-text: "%"
  inhibition: 11

1. Fc1cccc(-c2nnc3sc(/C=C/c4ccco4)nn23)c1
2. Cc1cccc(-c2nnc3sc(/C=C/c4ccco4)nn23)c1
3. Cc1occc1-c1nnc2sc(Cc3ccccc3)nn12
(Q) Task field, ranking: reported inhibition, descending order. Order the labels as requested and list them.
(A) 2, 1, 3

----------
target: Histone-lysine N-methyltransferase, H3 lysine-79 specific (Homo sapiens); experiment: Inhibition of recombinant human His6-SUMO tagged DOT1L (1 to 416 residues) expressed in Escherichia coli BL21(DE3) at 50 uM using oligonucleosome as substrate pretreated for 15 mins followed by substrate addition measured after 60 mins in presence of [3H]SAM by liquid scintillation counting method relative to control
readout-type: inhibition (%)

1. Fc1cccc(-c2nnc3sc(CCc4ccccc4)nn23)c1
2. COc1ccccc1-c1nnc2sc(/C=C/c3ccco3)nn12
(Q) Out of 1 and 2 , name the one with the higher inhibition. Kindly give the label for the entry you pick.
(A) 2
